Affinity ELISA, pH 6.0 overview
target: T1, human ROR2 (receptor tyrosine kinase-like orphan receptor 2) (human, UniProt Q01974 34-403, limits assumed); assay: affinity ELISA on human ROR2, pH 6.0; set-up: unit not given here
T1 construct: Antigen of the ELISA, SPR and pH titration assays; also called hROR2
T1 sequence (Q01974 34-403 limits assumed): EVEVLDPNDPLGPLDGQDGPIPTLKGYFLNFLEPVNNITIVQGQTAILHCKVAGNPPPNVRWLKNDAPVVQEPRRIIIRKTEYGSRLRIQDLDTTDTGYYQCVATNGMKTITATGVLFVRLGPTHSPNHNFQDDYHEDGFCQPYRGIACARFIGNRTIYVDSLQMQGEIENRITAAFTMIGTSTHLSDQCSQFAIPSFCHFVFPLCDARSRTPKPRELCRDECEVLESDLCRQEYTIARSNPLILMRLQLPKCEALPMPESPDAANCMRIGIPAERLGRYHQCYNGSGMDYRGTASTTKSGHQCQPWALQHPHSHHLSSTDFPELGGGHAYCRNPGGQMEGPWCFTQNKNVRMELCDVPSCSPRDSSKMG
Parameter measured: Affinity ELISA, pH 6.0

Binder	Parameter measured	Val
HC-A097I (antibody, V domains shown, CPE single point mutant of parent VH 48.6-HC-WT) VH: EVQLQQSGPELVKPGASVKISCKTSGYTFTEYTMHWMKQSHRKSLEWIGGINTNNGGTGYNQKFKGKATLTVDKSSSTAYMELRSLTSEDSAVYFCIRGSLYSYGNSYFDYWGQGTLVTVSS VL: QIVLTQSPAIMSASPGEKVTITCSATSSVSYMHWFQQKPGTSPKLWIYGTSNLASGVPARFSGSGSGTSYSLTISRMEAEDAATYYCQQRSSYPFTFGQGTKVEIK	Affinity ELISA, pH 6.0	1.89
HC-G105D (antibody, V domains shown, CPE single point mutant of parent VH 48.6-HC-WT) VH: EVQLQQSGPELVKPGASVKISCKTSGYTFTEYTMHWMKQSHRKSLEWIGGINTNNGGTGYNQKFKGKATLTVDKSSSTAYMELRSLTSEDSAVYFCARGSLYSYDNSYFDYWGQGTLVTVSS VL: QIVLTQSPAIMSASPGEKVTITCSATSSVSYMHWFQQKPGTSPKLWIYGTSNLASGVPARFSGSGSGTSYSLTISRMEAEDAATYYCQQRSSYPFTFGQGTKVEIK	Affinity ELISA, pH 6.0	0.509
